Each recorded value in this set is attributed to PubChem BioAssay (NCI).

- PROTOCOL SUMMARY: NCI Yeast Anticancer Drug Screen. Data for the bub3 strain (AID 167)
- SETUP CONDITIONS: S. cerevisiae bub3 mutant strain, hits give high values; at 50.0 µM unless noted
This is part of a sample that, as a whole, favours compounds with a hit. Of some 79,000 tested, about 15% had one in any assay.
Label criterion met for high-side growth inhibition (at or above -10%) and criterion not met for low-side growth inhibition (below it).

> print(dat)
                                   compound           category
1  CC1=C(C(=O)Nc2ccccc2)C(c2ccccc2Cl)C(C(=O)Nc2ccccc2)=C(C)N1  criterion not met
2  Cc1nn(C(=O)c2ccc(Cl)cc2)c2c1C(c1ccc([N+](=O)[O-])cc1)SC(N)=N2 (stereo not given)  criterion not met
3  O=C1c2cccc3c([N+](=O)[O-])ccc(c23)C(=O)N1Cc1cccnc1      criterion met
4  CCCCN(CCCC)CCC(O)c1cc(-c2ccc(C(F)(F)F)cc2)nc(C(F)(F)F)c1 (stereo not given)      criterion met
5  O=C(Nc1ccc(Cl)cc1)Nc1nnc(-c2cccc(Cl)c2)o1      criterion met
